Taken from patent US11702475B2.

molecules and their reported Percent monomer
assay: Analytical size exclusion chromatography (percent monomer); assay type: physicochemical; details: NEM-conjugated cysteine variants; SEC, Abs280 monomer region 5.5-6 minutes vs oligomer region 4-5.3 minutes
reported property: Percent monomer (%)

molecule="E29C (conjugate, left off: small tags and cut ends) LPAPKNLVVSEVTEDSARLSWDDPWAFYCSFLIQYQESEKVGEAIVLTVPGSERSYDLTGLKPGTEYTVSIYGVHNVYKDTNMRGLPLSAIFTT" reported_property="Percent monomer" value=85
molecule="L88C: cysteine variant of P54AR4-83v2 (SEQ ID NOS: 212 and 250); NEM and VC-MMAF conjugates (conjugate, NEM or vcMMAF conjugate; EGFR binding FN3 domain, NEM and VC-MMAF conjugates) MLPAPKNLVVSEVTEDSARLSWDDPWAFYESFLIQYQESEKVGEAIVLTVPGSERSYDLTGLKPGTEYTVSIYGVHNVYKDTNMRGLPCSAIFTT" reported_property="Percent monomer" value=98
molecule="G60C: cysteine variant of P54AR4-83v2 (SEQ ID NOS: 207 and 245); NEM and VC-MMAF conjugates (conjugate, NEM or vcMMAF conjugate; EGFR binding FN3 domain, NEM and VC-MMAF conjugates) MLPAPKNLVVSEVTEDSARLSWDDPWAFYESFLIQYQESEKVGEAIVLTVPGSERSYDLTCLKPGTEYTVSIYGVHNVYKDTNMRGLPLSAIFTT" reported_property="Percent monomer" value=100
